Target: JAK2 (Homo sapiens, UniProt O60674)
Construct: endogenous in cells; mixed Molt4/Ramos lysate 1:2
Sequence (O60674 whole entry): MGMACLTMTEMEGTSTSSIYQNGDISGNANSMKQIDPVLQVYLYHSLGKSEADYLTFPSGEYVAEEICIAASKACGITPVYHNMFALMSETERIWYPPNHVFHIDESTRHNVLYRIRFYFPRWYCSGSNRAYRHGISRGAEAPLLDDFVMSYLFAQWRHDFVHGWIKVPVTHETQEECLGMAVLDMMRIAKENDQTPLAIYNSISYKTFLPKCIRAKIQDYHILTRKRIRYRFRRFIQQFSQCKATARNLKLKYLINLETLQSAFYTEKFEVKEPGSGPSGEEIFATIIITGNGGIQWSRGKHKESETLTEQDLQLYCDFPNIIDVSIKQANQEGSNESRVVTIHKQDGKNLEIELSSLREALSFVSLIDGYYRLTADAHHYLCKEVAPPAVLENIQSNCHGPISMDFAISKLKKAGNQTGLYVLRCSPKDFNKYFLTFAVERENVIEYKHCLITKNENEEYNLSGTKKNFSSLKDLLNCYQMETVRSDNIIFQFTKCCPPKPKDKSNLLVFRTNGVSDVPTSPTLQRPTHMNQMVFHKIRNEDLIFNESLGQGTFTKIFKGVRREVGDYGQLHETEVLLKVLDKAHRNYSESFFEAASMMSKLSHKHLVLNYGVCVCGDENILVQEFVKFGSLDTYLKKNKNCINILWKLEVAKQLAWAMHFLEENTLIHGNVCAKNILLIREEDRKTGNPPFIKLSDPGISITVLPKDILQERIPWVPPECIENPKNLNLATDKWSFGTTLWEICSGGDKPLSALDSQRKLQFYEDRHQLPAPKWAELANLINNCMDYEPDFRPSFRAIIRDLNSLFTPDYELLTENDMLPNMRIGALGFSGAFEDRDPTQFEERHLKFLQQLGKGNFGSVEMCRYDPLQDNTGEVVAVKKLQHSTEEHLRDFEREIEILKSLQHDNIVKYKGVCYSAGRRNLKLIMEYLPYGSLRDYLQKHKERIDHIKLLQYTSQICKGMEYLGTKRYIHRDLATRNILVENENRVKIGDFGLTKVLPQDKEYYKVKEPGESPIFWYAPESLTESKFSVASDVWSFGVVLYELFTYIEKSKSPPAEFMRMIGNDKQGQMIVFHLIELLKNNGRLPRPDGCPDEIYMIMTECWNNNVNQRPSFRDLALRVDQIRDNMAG
Assay: Kinobeads assay, JAK2 (competition binding in cell lysate, dot blot detection)
Details: mixed Molt4/Ramos lysate
Overview of reported IC50 across a group of compounds:

In the examples that follow, each entry is paired with its recorded IC50.
Cn1cc(Nc2ncc3cnn(CCC4CCCN(S(C)(=O)=O)C4)c3n2)cn1 (centres unmarked) = 1 to 10 µM
CC(C)NC(=O)CN1CCC(Cn2ncc3cnc(Nc4cnn(C)c4)nc32)C1 (centres unmarked) = > 10 µM
COCCN1CCCC(Cn2ncc3cnc(Nc4cnn(C)c4)nc32)C1 (centres unmarked) = > 10 µM
Cn1cc(Nc2ncc3cnn(CC4CCCN(CC#N)C4)c3n2)cn1 (centres unmarked) = 1 to 10 µM

// moving on: another record for IC50
Need IC50, item Cn1cc(Nc2ncc3cnn(CC4CN(CCC#N)C4)c3n2)cn1
> 10 µM

---

# pIC50 listing for each entry below
Target: JAK2 (Homo sapiens)
Construct: endogenous in cells; mixed Molt4/Ramos lysate 1:2
Assay: Kinobeads assay, JAK2 (competition binding in cell lysate, dot blot detection)
Settings: mixed Molt4/Ramos lysate
pIC50: −log10 of the molar value.

Worked cases, pIC50 given:
Cn1cc(Nc2ncc3cnn(C4CCNCC4)c3n2)cn1 = < 5.00
Cn1cc(Nc2ncc3cnn(CC4CCCNC4)c3n2)cn1 (stereo not drawn) = 5.00 to 6.00

Write down the reported pIC50 of CC(C)S(=O)(=O)N1CCCC(Cn2ncc3cnc(Nc4cnn(CC(F)F)c4)nc32)C1 (stereo not drawn) , test system: JAK2 (Homo sapiens).
5.00 to 6.00

Query pIC50 on JAK2 (Homo sapiens) for CN(C)C(=O)N1CCCC(Cn2ncc3cnc(Nc4cnn(C)c4)nc32)C1 (stereo not drawn)
5.00 to 6.00

# value lookup — system JAK2 (Homo sapiens), readout pIC50, item CNC(=O)CN1CCCC(Cn2ncc3cnc(Nc4cnn(C)c4)nc32)C1 (stereo not drawn)
5.00 to 6.00

I'm curious: which pIC50 was measured for CC(=O)NC1CCC(n2ncc3cnc(Nc4cnn(C)c4)nc32)CC1 (stereo not drawn) tested on JAK2 (Homo sapiens)?
5.00 to 6.00

---

Target: JAK2 (Homo sapiens, UniProt O60674)
Construct: endogenous in cells; mixed Molt4/Ramos lysate 1:2
Test: Kinobeads assay, JAK2 (competition binding in cell lysate, dot blot detection)
Conditions: mixed Molt4/Ramos lysate
Experimental: The compounds of the present invention as described in the previous examples were tested in a Kinobeads™ assay as described for ZAP-70 (WO-A 2007/137867). […] Bound proteins were then eluted and the presence of JAK2 and JAK3 was detected and quantified using specific antibodies in a dot blot procedure and the Odyssey infrared detection system. Dose response curves for individual kinases were generated and IC50 values calculated. […]
METRIC: IC50

CC1CCCC(n2ncc3cnc(Nc4cnn(C)c4)nc32)C1 (centres unmarked) = > 10 µM
CCC(C1CCCCC1)n1ncc2cnc(Nc3cnn(C)c3)nc21 (centres unmarked) = > 10 µM
Cn1cc(Nc2ncc3cnn(CCCNS(C)(=O)=O)c3n2)cn1 = 1 to 10 µM

Sample Cn1cc(Nc2ncc3cnn(CC4CCN(CCC#N)C4)c3n2)cn1 (centres unmarked) — what was its IC50?
1 to 10 µM

Given the entry COCC(=O)N1CCCC(Cn2ncc3cnc(Nc4cnn(C)c4)nc32)C1 (centres unmarked) , report its measured IC50.
> 10 µM
